Provide the reported Selectivity Index (SI) of each item.
# System: HAdV5-GFP
# TEST NAME: microbe, parasite or virus in culture
# Assay type: cell-based, human adenovirus
# CONDITION PARAMETERS: ratio of CC50 to IC50 in plaque assay
Provide a numeric answer; units are not to be included.

# value of Selectivity Index (SI), HAdV5-GFP, item O=C(NCC1CCCCC1)c1cc(Cl)ccc1O [Compound 16] = 116.9

# value of Selectivity Index (SI), HAdV5-GFP, item O=C(NCCC1CCCCC1)c1cc(Cl)ccc1O [Compound 20] = 64.3

# value of Selectivity Index (SI), HAdV5-GFP, item C[C@H](NC(=O)c1cc(Cl)ccc1O)C1CCCCC1 [Compound 17] = 45.1

# value of Selectivity Index (SI), HAdV5-GFP, item CCCCCCNC(=O)c1cc(Cl)ccc1O [Compound 24, 5-Chloro-N-hexyl-2-hydroxybenzamide] = 6.4

# value of Selectivity Index (SI), HAdV5-GFP, item O=C(NC1CCCCCC1)c1cc(Cl)ccc1O [Compound 13] = 6.6
